Measured KM, listed per entry.
target: Factor X (FX), P00742
Sequence (P00742 whole entry, looked up): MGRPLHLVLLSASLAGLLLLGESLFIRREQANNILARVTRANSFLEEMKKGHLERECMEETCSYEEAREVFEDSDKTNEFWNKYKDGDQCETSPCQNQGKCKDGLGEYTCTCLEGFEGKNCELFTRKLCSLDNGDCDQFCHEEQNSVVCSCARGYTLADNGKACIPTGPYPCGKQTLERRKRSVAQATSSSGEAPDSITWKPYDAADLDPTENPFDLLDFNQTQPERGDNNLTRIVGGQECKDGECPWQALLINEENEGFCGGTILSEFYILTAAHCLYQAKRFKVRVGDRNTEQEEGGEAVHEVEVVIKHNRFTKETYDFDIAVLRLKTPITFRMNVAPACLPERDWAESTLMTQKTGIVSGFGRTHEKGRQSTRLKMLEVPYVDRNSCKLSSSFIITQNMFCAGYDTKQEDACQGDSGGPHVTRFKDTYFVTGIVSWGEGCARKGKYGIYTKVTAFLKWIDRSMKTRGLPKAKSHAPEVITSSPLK
Number in µM, nothing else.

protein="FIXa D104N/K106S/Y155F/R318Y/R338E/R403E/E410N (protein) chain 1: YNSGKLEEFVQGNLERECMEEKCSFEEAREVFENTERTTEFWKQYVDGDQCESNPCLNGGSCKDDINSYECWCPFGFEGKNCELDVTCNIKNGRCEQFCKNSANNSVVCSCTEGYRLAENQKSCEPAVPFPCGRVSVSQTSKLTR chain 2: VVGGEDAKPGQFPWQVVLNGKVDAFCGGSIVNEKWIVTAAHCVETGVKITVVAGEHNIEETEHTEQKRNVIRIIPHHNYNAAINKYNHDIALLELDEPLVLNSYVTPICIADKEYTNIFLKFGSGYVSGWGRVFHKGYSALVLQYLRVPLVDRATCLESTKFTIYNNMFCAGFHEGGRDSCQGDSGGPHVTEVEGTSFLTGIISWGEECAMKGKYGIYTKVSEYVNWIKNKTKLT" assay_endpoint=KM observed_measurement=0.048
protein="FIXa Y155F/R318Y/R403E/E410N (protein) chain 1: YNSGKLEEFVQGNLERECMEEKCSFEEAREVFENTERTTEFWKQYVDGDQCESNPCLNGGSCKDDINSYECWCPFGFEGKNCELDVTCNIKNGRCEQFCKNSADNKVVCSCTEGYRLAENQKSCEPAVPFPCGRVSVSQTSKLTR chain 2: VVGGEDAKPGQFPWQVVLNGKVDAFCGGSIVNEKWIVTAAHCVETGVKITVVAGEHNIEETEHTEQKRNVIRIIPHHNYNAAINKYNHDIALLELDEPLVLNSYVTPICIADKEYTNIFLKFGSGYVSGWGRVFHKGYSALVLQYLRVPLVDRATCLRSTKFTIYNNMFCAGFHEGGRDSCQGDSGGPHVTEVEGTSFLTGIISWGEECAMKGKYGIYTKVSEYVNWIKNKTKLT" assay_endpoint=KM observed_measurement=0.111
protein="FIXa D203N/F205T/R338A (protein) chain 1: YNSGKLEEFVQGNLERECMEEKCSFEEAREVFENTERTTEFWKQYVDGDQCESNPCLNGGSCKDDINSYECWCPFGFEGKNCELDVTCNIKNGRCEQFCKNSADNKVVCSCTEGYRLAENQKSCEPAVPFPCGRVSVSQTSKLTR chain 2: VVGGEDAKPGQFPWQVVLNGKVNATCGGSIVNEKWIVTAAHCVETGVKITVVAGEHNIEETEHTEQKRNVIRIIPHHNYNAAINKYNHDIALLELDEPLVLNSYVTPICIADKEYTNIFLKFGSGYVSGWGRVFHKGRSALVLQYLRVPLVDRATCLASTKFTIYNNMFCAGFHEGGRDSCQGDSGGPHVTEVEGTSFLTGIISWGEECAMKGKYGIYTKVSRYVNWIKEKTKLT" assay_endpoint=KM observed_measurement=0.0385

Now take the following protein into account.
query: Please report KM for the following protein: FIXa D203N/F205T/R338E/R403E (protein) chain 1: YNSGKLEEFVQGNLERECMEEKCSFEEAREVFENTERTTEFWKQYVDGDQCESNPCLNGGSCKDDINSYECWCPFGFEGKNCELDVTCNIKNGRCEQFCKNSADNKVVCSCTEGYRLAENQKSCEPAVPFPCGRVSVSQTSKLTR chain 2: VVGGEDAKPGQFPWQVVLNGKVNATCGGSIVNEKWIVTAAHCVETGVKITVVAGEHNIEETEHTEQKRNVIRIIPHHNYNAAINKYNHDIALLELDEPLVLNSYVTPICIADKEYTNIFLKFGSGYVSGWGRVFHKGRSALVLQYLRVPLVDRATCLESTKFTIYNNMFCAGFHEGGRDSCQGDSGGPHVTEVEGTSFLTGIISWGEECAMKGKYGIYTKVSEYVNWIKEKTKLT
result: 0.0511
